Exercise: for every item that follows, state its recorded growth inhibition.
# ASSAY COMMENT: NCI Yeast Anticancer Drug Screen. Data for the mlh1 strain (AID 171);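 further: 0% = growth of vehicle-treated control cultures of the same strain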
# CONDITIONS: S. cerevisiae mlh1 strain growth inhibition; at 3.7 µM; active compounds read high
The panel holds about 79,000 compounds, 15% with a hit somewhere; the sample as a whole holds those more often.
# unit: % | format: bare number

Ask | # get_value(readout='growth inhibition', item= Cc1ccc([N+](=O)[O-])c2c(NCCC[N+](C)(C)[O-])c3ccccc3nc12 )
Reply | 11

Ask | Also need O=C1c2ccccc2C(=O)c2c(O)c(NCCNCCO)cc(O)c21 , thanks.
Reply | -13

Ask | Also need NC(CS)C(=O)NCCNc1ccc(NCCNC(=O)C(N)CS)c2c1C(=O)c1c(O)ccc(O)c1C2=O (stereo not drawn) , thanks.
Reply | -35

Ask | Also need C[n+]1c(/C=C/c2ccc(/C=N/NC(=O)c3ccc(C(=O)N/N=C/c4ccc(/C=C/c5cn6ccccc6[n+]5C)cc4)cc3)cc2)cn2ccccc21 , thanks.
Reply | 99

Ask | Also need CC1=CC(C)(C)SC(SSSC2=NC(C)=CC(C)(C)S2)=N1 , thanks.
Reply | -4

Ask | Also need CC1=CC(=C(c2ccc(N)c(C)c2)c2ccc(N)c(C)c2)C=CC1=N , thanks.
Reply | 10

Ask | Also need c1ccc2c(c1)ccn2CCc1c[nH]c2ccccc12 , thanks.
Reply | -14

Ask | Also need O=C(CN(c1ccccc1)c1ccccc1)n1nnc2ccccc21 , thanks.
Reply | 6

Ask | Also need O=C(NO)c1coc2ccccc2c1=O , thanks.
Reply | 0

Ask | Also need O=C(CCSC1=NCCCN1)c1ccc(F)cc1 , thanks.
Reply | -73

Ask | Also need O=C1C(=O)c2cccc([N+](=O)[O-])c2-c2ccccc21 , thanks.
Reply | -1

Ask | Also need Nc1ccc2c(c1)C(=O)c1c(F)cccc1-2 , thanks.
Reply | -4

Ask | Also need Oc1c2c(c(O)c3ccccc13)C1(N=N2)c2ccccc2Oc2ccccc21 , thanks.
Reply | 43

====

# ASSAY COMMENT: NCI Yeast Anticancer Drug Screen. Data for the rad50 strain (AID 155);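 further: 0% = growth of vehicle-only cultures of the same strain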
# CONDITIONS: S. cerevisiae rad50 strain growth inhibition; at 100.0 µM
This is part of a sample that, as a whole, favours compounds with a hit. Of some 79,000 tested, about 15% had one in any assay. Calls of active or inactive are those of the source. Rule as the data show it: active = growth inhibition above about 70%; inactive = the rest.
Hi! Could you answer with just one of these? active, inactive

Ask | Recorded test call requested for CC1(C)CC(=O)C(C=NC(=S)C(N)=S)=C(O)C1
Reply | inactive

Ask | Also need NC(=S)N/N=C1\c2ccccc2CCC1CCC1(O)CCc2ccccc2C1=O (stereo unspecified) , thanks.
Reply | active

Ask | Also need CCC(/C=C/c1ccccc1)=N\Nc1ccc(Cl)c(Cl)c1 , thanks.
Reply | active

Ask | Also need O=C(C#Cc1ccccc1)Nc1ccccc1 , thanks.
Reply | active

Ask | Also need COc1ccccc1/C=C\C(=O)C1COCN1 (stereo unspecified) , thanks.
Reply | active

Ask | Also need O=C1/C(=C/c2ccc(Cl)c(Cl)c2)CNC/C1=C\c1ccc(Cl)c(Cl)c1 , thanks.
Reply | active

====

Exercise: for every item that follows, state its recorded growth inhibition.
# ASSAY COMMENT: NCI Yeast Anticancer Drug Screen. Data for the bub3 strain (AID 167)
# CONDITIONS: S. cerevisiae bub3 mutant strain, at 3.7 µM, active compounds read high
Compounds without any hit were thinned out: in the full panel of roughly 79,000, 15% have a hit.
# unit: % | format: bare number

Ask | # get_value(readout='growth inhibition', item= COC(=O)C(=O)c1c(-c2ccc(Cl)c(Cl)c2)[nH]c2[nH]n(-c3ccccc3)c(=O)c2c1=O )
Reply | -2

Ask | Also need CN(C)N=Nc1ccc(N(C)C)cc1 , thanks.
Reply | -3

Ask | Also need CC1C(c2ccccc2)SC(=N)N1C (stereo unspecified) , thanks.
Reply | -2

Ask | Also need CC1(C)OC(=O)C(=Cc2ccc([N+](=O)[O-])s2)C(=O)O1 , thanks.
Reply | -13

Ask | Also need N#[N+]c1c([O-])c2ccccc2c2ccccc12 , thanks.
Reply | 10

Ask | Also need CN(C)CC1=Nc2cccc3cccc(c23)N1 , thanks.
Reply | -4

Measured values drawn from PubChem BioAssay (NCI) for this set.
